Assay: Rat Hepatocyte Stability (Test E)
Format: in vitro ADME
Conditions: rat hepatocytes; geometric mean if run multiple times
Think of 30 μL/min/10^6 cells as a floor: if Test E Rat Hepatocyte Stability Clint stands on it or above, it is label 1; beneath it, label 0.

# Compound, Assigned Class
records = [
    ("COc1cc(C#N)c(O[C@H]2CC[C@@](C)(C(=O)O)CC2)cc1C(=O)N[C@H]1C2CCC(CC2)[C@H]1C(=O)NCC1(C)CCC1 (relative stereo)", "label 0"),
    ("COc1cc(F)c(O[C@H]2CC[C@@](C)(C(=O)O)CC2)cc1C(=O)N[C@@H]1COC[C@@H]1C(=O)Nc1cccc(S(=O)(=O)C(F)(F)F)c1 (relative stereo)", "label 1"),
    ("COc1cc(F)c(O[C@H]2CC[C@@](C)(C(=O)O)CC2)cc1C(=O)N[C@H]1C[C@@H](OC)C[C@H]1C(=O)Nc1cccc(S(=O)(=O)C(F)(F)F)c1 (stereo in doubt)", "label 1"),
    ("COc1cc(F)c(O[C@H]2CC[C@@](C)(C(N)=O)CC2)cc1C(=O)N[C@@H]1[C@H]2CC[C@H](C2)[C@@H]1C(=O)NCC1(F)CCOCC1", "label 1"),
    ("COc1cc(F)c(O[C@H]2CC[C@@](C)(C(=O)O)CC2)cc1C(=O)N[C@@H]1COCC[C@@H]1C(=O)Nc1cccc(S(=O)(=O)C(F)(F)F)c1 (relative stereo)", "label 0"),
    ("CCC(C)CNC(=O)C1C2CCC(C2)C1NC(=O)c1cc(OC2CCC(C(=O)O)CC2)c(F)cc1OC (single isomer, unassigned)", "label 1"),
]

###

Biological target: human RXFP1 (Homo sapiens, UniProt Q9HBX9)
Sequence (Q9HBX9 1-757): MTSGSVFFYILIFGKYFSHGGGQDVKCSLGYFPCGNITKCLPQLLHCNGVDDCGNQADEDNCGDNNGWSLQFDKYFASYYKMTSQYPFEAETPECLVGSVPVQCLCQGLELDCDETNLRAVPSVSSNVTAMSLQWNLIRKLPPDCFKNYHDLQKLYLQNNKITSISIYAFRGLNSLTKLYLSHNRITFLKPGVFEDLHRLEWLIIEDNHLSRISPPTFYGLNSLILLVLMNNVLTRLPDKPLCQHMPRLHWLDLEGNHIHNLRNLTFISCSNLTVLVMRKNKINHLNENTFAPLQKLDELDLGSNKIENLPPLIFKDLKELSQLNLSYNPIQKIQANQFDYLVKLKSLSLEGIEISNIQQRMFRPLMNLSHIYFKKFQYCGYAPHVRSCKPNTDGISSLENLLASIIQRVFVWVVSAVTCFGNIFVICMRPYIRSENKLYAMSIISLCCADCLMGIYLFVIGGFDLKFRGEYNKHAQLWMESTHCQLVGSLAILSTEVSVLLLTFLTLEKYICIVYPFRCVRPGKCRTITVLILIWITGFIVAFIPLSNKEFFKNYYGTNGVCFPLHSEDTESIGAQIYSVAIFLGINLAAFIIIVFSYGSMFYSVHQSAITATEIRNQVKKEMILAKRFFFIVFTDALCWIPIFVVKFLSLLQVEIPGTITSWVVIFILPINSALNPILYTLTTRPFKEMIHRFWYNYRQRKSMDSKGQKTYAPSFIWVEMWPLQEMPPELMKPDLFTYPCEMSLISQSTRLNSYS
Assay: RXFP1 Hu cAMP (Test A)
Format: cell-based
Parameters: expressed in transfected cells; host or cells: Jump-In T-REx CHO-K1 cells (ThermoFisher), induced with 10 ng/ml doxycycline for 24 h
Conditions: RXFP1 Hu cAMP; read-out: Test A EC50
pEC50: −log10 of the molar value.
# label = Satisfied if pEC50 >= 7 else Not satisfied

# Molecule, Tested Target, Assigned Class
measured = [
    ("COc1cc(F)c(O[C@H]2CC[C@@H](C(=O)O)CC2)cc1C(=O)N[C@@H]1[C@H]2CC[C@H](C2)[C@@H]1C(=O)Nc1ccc(C(F)(F)F)cn1 [Example 13]", "human RXFP1 (Homo sapiens, UniProt Q9HBX9)", "Not satisfied"),
    ("COc1cc(F)c(-c2ccc(C(=O)O)cc2)cc1C(=O)N[C@H]1[C@@H]2CC[C@@H](C2)[C@H]1C(=O)N[C@H]1CCCN(S(=O)(=O)C(F)(F)F)C1 (single isomer, unassigned) [Example 313]", "human RXFP1 (Homo sapiens, UniProt Q9HBX9)", "Not satisfied"),
    ("COc1cc(F)c(-c2ccc(C(=O)O)cc2)cc1C(=O)N[C@H]1[C@@H]2CC[C@@H](C2)[C@H]1C(=O)Nc1ccc(F)c(C(F)(F)F)c1 (single isomer, unassigned) [Example 590]", "human RXFP1 (Homo sapiens, UniProt Q9HBX9)", "Not satisfied"),
    ("COc1cc(F)c(-c2ccc(O)c(C(=O)O)c2)cc1C(=O)N[C@@H]1[C@H]2CC[C@H](C2)[C@@H]1C(=O)Nc1cccc(S(=O)(=O)C(F)(F)F)c1 (racemic) [Example 316]", "human RXFP1 (Homo sapiens, UniProt Q9HBX9)", "Not satisfied"),
    ("CCC(CC)CNC(=O)[C@H]1[C@@H]2CC[C@@H](C2)[C@H]1NC(=O)c1cc(O[C@H]2CC[C@@](C)(C(=O)O)CC2)c(C#N)cc1OC [Example 88]", "human RXFP1 (Homo sapiens, UniProt Q9HBX9)", "Satisfied"),
    ("COc1cc(C#N)c(O[C@H]2CC[C@@](C)(C(=O)O)CC2)cc1C(=O)N[C@@H]1[C@H]2CC[C@H](C2)[C@@H]1C(=O)N[C@H]1CCCC[C@H]1CC(F)(F)F [Example 134]", "human RXFP1 (Homo sapiens, UniProt Q9HBX9)", "Satisfied"),
    ("COc1cc(F)c(-c2ccc(C[C@@H](N)C(=O)O)cc2)cc1C(=O)N[C@@H]1[C@H]2CC[C@H](C2)[C@@H]1C(=O)Nc1cccc(S(=O)(=O)C(F)(F)F)c1 [Example 291]", "human RXFP1 (Homo sapiens, UniProt Q9HBX9)", "Not satisfied"),
    ("COc1cc(Cl)c(O[C@H]2CC[C@@](C)(C(=O)O)CC2)cc1C(=O)N[C@@H]1[C@H]2CC[C@H](C2)[C@@H]1C(=O)NCC(C)(C)C(F)(F)F [Example 409]", "human RXFP1 (Homo sapiens, UniProt Q9HBX9)", "Satisfied"),
    ("COc1cc(F)c(O[C@H]2CC[C@@](C)(C(=O)O)CC2)cc1C(=O)NC1CC(OC)CC1C(=O)NCC(C)(C)C (single isomer, unassigned) [Example 546]", "human RXFP1 (Homo sapiens, UniProt Q9HBX9)", "Not satisfied"),
]

###

The reader will find reported Test A Sinf values listed item by item below.
Biological target: human RXFP1 (Homo sapiens)
Test: RXFP1 Hu cAMP (Test A)
Type: cell-based
Design: expressed in transfected cells; host or cells: Jump-In T-REx CHO-K1 cells (ThermoFisher), induced with 10 ng/ml doxycycline for 24 h
Conditions: RXFP1 Hu cAMP
Measurement Label: Test A Sinf (%)

# Compound, Tested Target, Measurement Label, Quantitative Result
measured = [
    ("COc1cc(F)c(O[C@H]2CC[C@@H](C(=O)O)CC2)cc1C(=O)N[C@@H]1[C@H]2CC[C@H](C2)[C@@H]1C(=O)Nc1c(F)c(F)c(F)c(F)c1F", "human RXFP1 (Homo sapiens)", "Test A Sinf", 93),
    ("COc1cc(F)c(O[C@H]2CC[C@@H](C(N)=O)CC2)cc1C(=O)N[C@@H]1[C@H]2CC[C@H](C2)[C@@H]1C(=O)Nc1ccc(F)c(C(F)(F)F)c1", "human RXFP1 (Homo sapiens)", "Test A Sinf", 110),
    ("COc1cc(F)c(-c2ccc(CCC(=O)O)cc2)cc1C(=O)N[C@@H]1CCC[C@@H]1C(=O)Nc1cccc(S(=O)(=O)C(F)(F)F)c1", "human RXFP1 (Homo sapiens)", "Test A Sinf", 101),
    ("COc1cc(F)c(O[C@H]2CC[C@@H](C(=O)O)CC2)cc1C(=O)N[C@@H]1[C@H]2CC[C@H](C2)[C@@H]1C(=O)Nc1ccc(C#N)c(C(F)(F)F)c1", "human RXFP1 (Homo sapiens)", "Test A Sinf", 96),
    ("COc1cc(C#N)c(O[C@H]2CC[C@@](C)(C(=O)O)CC2)cc1C(=O)N[C@@H]1[C@H]2CC[C@H](C2)[C@@H]1C(=O)NCC1(OC)CC1", "human RXFP1 (Homo sapiens)", "Test A Sinf", 100),
    ("COc1cc(F)c(OC2CCCC(C(=O)O)C2)cc1C(=O)N[C@@H]1[C@H]2CC[C@H](C2)[C@@H]1C(=O)Nc1cccc(S(=O)(=O)C(F)(F)F)c1 (single isomer, unassigned) [Example 446]", "human RXFP1 (Homo sapiens)", "Test A Sinf", 98),
]
